Hello, the source for this data is patent US20220204611A1, in case you need it.

Readings of sandwich binding signal for the listed binders
- target-or-system: T1, recombinant soluble human TREM2 protein (human TREM2 ECD-FlagHis) (human, UniProt Q9NZC2 19-174)
- T1 sequence: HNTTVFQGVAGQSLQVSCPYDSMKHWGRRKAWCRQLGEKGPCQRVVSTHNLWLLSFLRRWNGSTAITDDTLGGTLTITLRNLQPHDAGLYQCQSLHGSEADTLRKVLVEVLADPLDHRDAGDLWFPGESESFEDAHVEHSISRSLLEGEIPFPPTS
- experimental-details: Octet BLI binning; competitor: load Ab 32E3
Keep it simple and answer with nothing but the number.

Worked set:
# binder, sandwich binding signal
records = [
    ("16B8 (antibody, human IgG4, V domains shown, human IgG4 (G4) from hybridoma) VH: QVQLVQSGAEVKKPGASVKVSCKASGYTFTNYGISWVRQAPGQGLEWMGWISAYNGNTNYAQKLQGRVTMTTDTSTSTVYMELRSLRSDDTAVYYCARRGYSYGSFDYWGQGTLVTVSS VL: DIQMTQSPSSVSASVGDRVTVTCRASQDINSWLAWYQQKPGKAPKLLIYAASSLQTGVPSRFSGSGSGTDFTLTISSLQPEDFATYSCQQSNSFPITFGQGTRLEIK", 0.4),
    ("6E7 (antibody, human IgG2, V domains shown, human IgG2 from hybridoma) VH: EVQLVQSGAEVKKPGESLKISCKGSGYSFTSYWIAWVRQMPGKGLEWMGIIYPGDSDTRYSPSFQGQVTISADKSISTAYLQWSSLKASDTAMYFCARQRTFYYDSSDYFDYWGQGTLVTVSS VL: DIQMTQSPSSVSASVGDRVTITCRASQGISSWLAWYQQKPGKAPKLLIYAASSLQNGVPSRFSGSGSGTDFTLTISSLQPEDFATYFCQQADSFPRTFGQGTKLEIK", 0.079),
    ("32E3 (antibody, human IgG2, V domains shown, human IgG2 from hybridoma) VH: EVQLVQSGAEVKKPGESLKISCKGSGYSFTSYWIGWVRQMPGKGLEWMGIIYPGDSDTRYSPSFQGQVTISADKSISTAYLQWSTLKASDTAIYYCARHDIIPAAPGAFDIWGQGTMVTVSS VL: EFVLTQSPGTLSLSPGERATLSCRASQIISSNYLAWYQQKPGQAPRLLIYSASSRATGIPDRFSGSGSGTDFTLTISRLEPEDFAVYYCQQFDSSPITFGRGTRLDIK", -0.01),
]

Now for another entry.
Enquiry: Given 10E3 (antibody, human IgG2, V domains shown, human IgG2 from hybridoma) VH: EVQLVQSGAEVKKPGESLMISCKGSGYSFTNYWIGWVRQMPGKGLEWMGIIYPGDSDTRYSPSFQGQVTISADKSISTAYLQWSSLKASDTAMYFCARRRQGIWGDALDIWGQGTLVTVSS VL: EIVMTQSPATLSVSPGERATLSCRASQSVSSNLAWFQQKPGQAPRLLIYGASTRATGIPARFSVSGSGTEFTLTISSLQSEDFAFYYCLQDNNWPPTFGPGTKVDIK , state its recorded sandwich binding signal.
Return: 0.007
